# test_protocol: qHTS of pediatric cancer cell lines to identify multiple opportunities for drug repurposing: Primary screen for LAN-5 cells (AID 1347100);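 note: plate controls were DMSO neutral control for no effect and bortezomib positive control for full effect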
# measurement_conditions: LAN-5 neuroblastoma viability, CellTiter-Glo luminescence, 48 h; series mostly up to 46 µM
Records with an inconclusive call do not appear. The source made the active and inactive calls. Calls come from the whole dose curve; as a rule, active = well fitted cell-killing curve with a large enough effect; inconclusive = small, poorly fitted or top-dose-only effect; inactive = no such curve, though single readings can be large or run the other way.
measured_attribute: outcome

Reference set (5 entries):
molecule	result
CNC(=O)NC(O)C(Cl)(Cl)Cl (configuration not stated)	inactive
CCC(=O)OC1(c2ccccc2)CCN(C)CC1	inactive
CN(C)CCc1c[nH]c2ccccc12	inactive
COc1cc(CC#N)cc(OC)c1OC	inactive
CC[C@H](O)C(C[C@H](C)N(C)C)(c1ccccc1)c1ccccc1	inactive

Query: Give its outcome value. Item: O=C(N[C@H]1N=C(c2ccccc2F)c2cccc3c2N(CC3)C1=O)c1cc2ccccc2[nH]1
Response: inactive

Query: Give its outcome value. Item: Cc1c(Cl)c(=O)oc2cc(OP(=O)(OCCCl)OCCCl)ccc12
Response: inactive

Query: Give its outcome value. Item: NCc1cccnc1
Response: inactive

---

# study_target: Estrogen receptor (Homo sapiens)
# test_protocol: qHTS assay for small molecule agonists of estrogen receptor alpha signaling (AID 588514); note: nearly all actives have a fitted effect of over 70% in size
# measurement_conditions: ER-alpha-UAS-bla HEK293, beta-lactamase ratio, 18 h; series mostly up to 76.8 µM
# Method: NIH Chemical Genomics Center [NCGC] U.S. Environmental Protection Agency [EPA] National Institutes of Environmental Health Sciences [NIEHS] National Toxicology Program [NTP] […] Using a beta-lactamase reporter-gene under control of the ER response element, a cell-based assay [ER-alpha-UAS-bla GripTiteTM cell-Based Assay from Invitrogen] was used to measure ER-alpha signaling pathway in agonist mode. […] Library compounds were measured for their ability to either stimulate the reporter gene activity. […]
Inconclusive results are not listed. Activity calls are given as the source filed them. Calls follow the shape of the full dose curve.
Your reply should match one of these outcome classes. yes (1) = active, no (0) = inactive

Please review the entries below; each comes with its answer.
compound	study_target	answer_label
CCNc1nc(Cl)nc(NCC)n1	Estrogen receptor (Homo sapiens)	no (0)
CCC(=O)O[C@H]1CC[C@H]2[C@@H]3CCC4=CC(=O)CC[C@]4(C)[C@H]3CC[C@]12C	Estrogen receptor (Homo sapiens)	yes (1)
COP(=O)(OC)OC=C(Cl)Cl	Estrogen receptor (Homo sapiens)	no (0)
O=C(NC(=O)c1c(F)cccc1F)Nc1cc(Cl)c(OC(F)(F)C(F)C(F)(F)F)cc1Cl (stereo unspecified)	Estrogen receptor (Homo sapiens)	no (0)
C[C@H]1C(=O)O[C@@H]2CCN3CC=C(COC(=O)[C@](C)(O)[C@]1(C)O)[C@H]23	Estrogen receptor (Homo sapiens)	no (0)
O=C(CCl)c1ccc(Cl)cc1Cl	Estrogen receptor (Homo sapiens)	no (0)
CC[n+]1c(-c2ccccc2)c2cc(N)ccc2c2ccc(N)cc21	Estrogen receptor (Homo sapiens)	no (0)
N#Cc1nn(-c2c(Cl)cc(C(F)(F)F)cc2Cl)c(N)c1S(=O)C(F)(F)F (stereo unspecified)	Estrogen receptor (Homo sapiens)	no (0)
Oc1c(Br)cc(Br)cc1Br	Estrogen receptor (Homo sapiens)	no (0)
COP(=S)(OC)Oc1ccc(Sc2ccc(OP(=S)(OC)OC)cc2)cc1	Estrogen receptor (Homo sapiens)	no (0)

With those in mind, consider the next compound.
Query: Assay result, entry CN(C)C(=S)SSC(=S)N(C)C — outcome?
Response: no (0)
